Target protein (sequence): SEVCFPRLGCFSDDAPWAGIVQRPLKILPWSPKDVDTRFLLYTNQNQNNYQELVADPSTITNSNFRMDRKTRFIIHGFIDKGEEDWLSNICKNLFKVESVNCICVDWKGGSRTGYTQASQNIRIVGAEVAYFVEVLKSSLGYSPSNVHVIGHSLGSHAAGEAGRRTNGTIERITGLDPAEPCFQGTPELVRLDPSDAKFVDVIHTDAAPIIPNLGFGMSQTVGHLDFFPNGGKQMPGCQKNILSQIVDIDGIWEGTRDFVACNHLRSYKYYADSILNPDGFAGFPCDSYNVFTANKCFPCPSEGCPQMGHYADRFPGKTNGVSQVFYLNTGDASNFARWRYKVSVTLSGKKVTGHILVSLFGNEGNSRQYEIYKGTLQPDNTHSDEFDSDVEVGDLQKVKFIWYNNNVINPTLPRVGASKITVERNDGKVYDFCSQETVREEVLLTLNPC
// reported IC50 for each item listed

- compound: "O=C(OC1Cc2c(O)cc(O)c(C(c3cc(O)c(O)c(O)c3)C(Cc3c(O)cc(O)cc3O)OC(=O)c3cc(O)c(O)c(O)c3)c2OC1c1cc(O)c(O)c(O)c1)c1cc(O)c(O)c(O)c1 (stereo not shown)"
  unitSpec: "nM"
  comparator: "="
  IC50: 186
- compound: "O=C1C=C2c3c(cc(O)c4c3O[C@H](c3ccc(O)c(O)c3)[C@@H](O)C4)OC23C[C@]1(O)O[C@H]1Cc2c(O)cc(O)cc2O[C@@H]13 [dehydro-dicatechin A (14), dehydro-dicatechin A]"
  unitSpec: "nM"
  comparator: "="
  IC50: 3090
- compound: "O=C(O[C@@H]1Cc2c(O)cc(O)cc2O[C@@H]1c1ccc(O)c(O)c1)c1cc(O)c(O)c(O)c1 [(−)-epicatechin 3-O-gallate (2), (−)-epicatechin 3-O-gallate]"
  unitSpec: "nM"
  comparator: "="
  IC50: 271
- compound: "Oc1cc(O)c2c(c1)O[C@H](c1ccc(O)c(O)c1)[C@H](O)C2 [(−)-epicatechin (1), (−)-epicatechin]"
  unitSpec: "nM"
  comparator: ">"
  IC50: 21600
- compound: "Oc1cc(O)c2c(c1)O[C@H](c1cc(O)c(O)c(O)c1)[C@H](O)C2 [(−)-epigallocatechin (3), (−)-epigallocatechin]"
  unitSpec: "nM"
  comparator: ">"
  IC50: 20400
- compound: "O=C(O[C@@H]1Cc2c(O)cc(O)cc2O[C@@H]1c1cc(O)c(O)c(O)c1-c1c([C@H]2Oc3cc(O)cc(O)c3C[C@H]2O)cc(O)c(O)c1O)c1cc(O)c(O)c(O)c1"
  unitSpec: "nM"
  comparator: "="
  IC50: 276
- compound: "Oc1cc(O)c2c(c1)O[C@H](c1cc(O)c(O)c(O)c1)[C@@H](O)C2 [(+)-gallocatechin (7), (+)-gallocatechin]"
  unitSpec: "nM"
  comparator: ">"
  IC50: 163000

---

# systemName: porcine pancreatic lipase (Sus scrofa, UniProt P00591)
Recorded IC50 for the following compounds

- compound: "O=C(O[C@@H]1Cc2c(O)cc(O)cc2O[C@@H]1c1cc(O)c(O)c(O)c1-c1c([C@H]2Oc3cc(O)cc(O)c3C[C@H]2OC(=O)c2cc(O)c(O)c(O)c2)cc(O)c(O)c1O)c1cc(O)c(O)c(O)c1 [theasinensin A (11), theasinensin A]"
  comparator: "="
  IC50, nM: 142
- compound: "Oc1cc(O)c2c(c1)OC(c1ccc(O)c(O)c1)C(O)C2 (single isomer, unassigned; (+)) [(+)-catechin (5), (+)-catechin]"
  comparator: ">"
  IC50, nM: 690000
- compound: "O=C(O[C@@H]1Cc2c(O)cc(O)cc2O[C@@H]1c1cc(O)c(O)c2c(=O)c(O)cc([C@H]3Oc4cc(O)cc(O)c4C[C@H]3O)cc12)c1cc(O)c(O)c(O)c1 [theaflavin 3′-O-gallate (16), theaflavin 3′-O-gallate]"
  comparator: "="
  IC50, nM: 112
- compound: "O=C(O[C@@H]1Cc2c(O)cc(O)cc2O[C@H]1c1cc(O)c(O)c(O)c1)c1cc(O)c(O)c(O)c1 [(−)-gallocatechin 3-O-gallate (8), (−)-gallocatechin 3-O-gallate]"
  comparator: "="
  IC50, nM: 349
- compound: "O=c1c(O)cc([C@H]2Oc3cc(O)cc(O)c3C[C@H]2O)cc2c([C@H]3Oc4cc(O)cc(O)c4C[C@H]3O)cc(O)c(O)c12 [theaflavin (15), theaflavin]"
  comparator: "="
  IC50, nM: 106
